B1: HESX1 (parent)
chain: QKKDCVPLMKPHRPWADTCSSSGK

- Variants of: B1
- experiment summary: protein stability index of a GFP-peptide fusion (GPS, HEK-293T) (PSI 1-6); higher = more stable;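 also: lentivirally expressed fusions sorted by FACS into six bins by GFP to DsRed ratio, PSI derived from sequencing read proportions per bin multiplied by bin number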
- experimental parameters: c terminus: a fixed tail appended
Kindly supply the reported protein stability index values for the records listed here.
# answer = number (no unit)

Query: Please indicate protein stability index recorded for `V6P`
Reply: 3.31

Query: Please indicate protein stability index recorded for `K10R`
Reply: 3.48

Query: Please indicate protein stability index recorded for `Q1A`
Reply: 2.76

Query: Please indicate protein stability index recorded for `V6Q`
Reply: 2.98

Query: Please indicate protein stability index recorded for `P14H`
Reply: 3.95

Query: Please indicate protein stability index recorded for `P11I`
Reply: 3.42

Query: Please indicate protein stability index recorded for `D4H`
Reply: 3.08

Query: Please indicate protein stability index recorded for `D17P`
Reply: 3.6

Query: Please indicate protein stability index recorded for `S22D`
Reply: 2.61

Query: Please indicate protein stability index recorded for `V6I`
Reply: 3.03

Query: Please indicate protein stability index recorded for `R13V`
Reply: 3.11

Query: Please indicate protein stability index recorded for `K24I`
Reply: 2.51

Query: Please indicate protein stability index recorded for `K3A`
Reply: 3.52
